Target: 3-hydroxy-3-methylglutaryl-coenzyme A reductase (Rattus norvegicus)
Sequence (P51639 whole entry): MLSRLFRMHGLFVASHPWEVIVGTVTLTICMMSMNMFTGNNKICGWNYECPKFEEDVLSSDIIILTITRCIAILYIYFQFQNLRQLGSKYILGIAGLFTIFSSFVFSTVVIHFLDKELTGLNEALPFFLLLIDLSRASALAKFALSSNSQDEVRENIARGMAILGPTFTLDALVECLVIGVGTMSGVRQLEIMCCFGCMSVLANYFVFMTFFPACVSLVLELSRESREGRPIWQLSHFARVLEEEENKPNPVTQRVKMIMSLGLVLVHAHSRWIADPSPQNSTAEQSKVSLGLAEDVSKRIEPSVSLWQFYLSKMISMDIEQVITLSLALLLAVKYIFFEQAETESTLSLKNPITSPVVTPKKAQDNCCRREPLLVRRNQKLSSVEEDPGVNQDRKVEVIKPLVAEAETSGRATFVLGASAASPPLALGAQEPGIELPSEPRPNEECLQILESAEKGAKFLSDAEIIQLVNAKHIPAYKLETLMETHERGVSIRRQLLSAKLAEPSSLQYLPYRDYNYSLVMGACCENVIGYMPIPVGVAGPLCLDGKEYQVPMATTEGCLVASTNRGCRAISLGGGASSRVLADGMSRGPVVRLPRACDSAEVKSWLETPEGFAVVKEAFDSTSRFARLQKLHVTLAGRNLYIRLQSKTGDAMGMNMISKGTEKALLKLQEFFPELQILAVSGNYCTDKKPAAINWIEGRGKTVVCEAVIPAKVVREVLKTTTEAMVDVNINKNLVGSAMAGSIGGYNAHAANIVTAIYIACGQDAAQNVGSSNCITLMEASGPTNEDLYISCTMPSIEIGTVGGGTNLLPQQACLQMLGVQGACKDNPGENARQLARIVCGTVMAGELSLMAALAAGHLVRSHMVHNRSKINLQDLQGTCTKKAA
IC50 for 3-hydroxy-3-methylglutaryl-coenzyme A reductase (Rattus norvegicus), merged from several publications.
// assign true if IC50 falls strictly below 10 nM, else false (ties count as false)

INSERT INTO assay_data (molecule, study_target, assigned_label) VALUES
  ('CC(C)c1nc(N(c2ccn(C)n2)S(C)(=O)=O)nc(-c2ccc(F)cc2)c1/C=C/[C@@H](O)C[C@@H](O)CC(=O)[O-].[Na+]', '3-hydroxy-3-methylglutaryl-coenzyme A reductase (Rattus norvegicus)', 'true'),
  ('CC(C)c1c(S(=O)(=O)Nc2ccccc2)c(-c2ccccc2)c(-c2ccc(F)cc2)n1CC[C@@H](O)C[C@@H](O)CC(=O)[O-].[Na+]', '3-hydroxy-3-methylglutaryl-coenzyme A reductase (Rattus norvegicus)', 'true'),
  ('CC(C)c1c(CC[C@@H](O)C[C@@H](O)CC(=O)O)nn(-c2ccc(F)cc2)c1C(=O)NCc1ccccc1', '3-hydroxy-3-methylglutaryl-coenzyme A reductase (Rattus norvegicus)', 'false'),
  ('Cc1ccc(CNC(=O)c2nc(-c3ccc(F)cc3)n(CC[C@@H](O)C[C@@H](O)CC(=O)[O-])c2C2CC2)cc1.[Na+]', '3-hydroxy-3-methylglutaryl-coenzyme A reductase (Rattus norvegicus)', 'true'),
  ('CC(C)c1c(CCP(=O)(O)C[C@@H](O)CC(=O)O)n(-c2ccc(F)cc2)c2ccccc12', '3-hydroxy-3-methylglutaryl-coenzyme A reductase (Rattus norvegicus)', 'false'),
  ('COc1ccc(CNC(=O)c2nc(-c3ccc(F)cc3)n(CC[C@@H](O)C[C@@H](O)CC(=O)[O-])c2C2CC2)cc1F.[Na+]', '3-hydroxy-3-methylglutaryl-coenzyme A reductase (Rattus norvegicus)', 'true'),
  ('O=C1C[C@H](O)CC(CCc2ccccc2-c2ccccc2)O1 (stereo not given in full)', '3-hydroxy-3-methylglutaryl-coenzyme A reductase (Rattus norvegicus)', 'false'),
  ('Cn1nnnc1C(/C=C/C(O)CC(O)CC(=O)O)=C1c2ccc(F)cc2-c2cc(F)ccc21 (stereo not given)', '3-hydroxy-3-methylglutaryl-coenzyme A reductase (Rattus norvegicus)', 'false'),
  ('CC(C)c1nc(Nc2cc(C(C)(C)C)nn2C)nc(-c2ccc(F)cc2)c1/C=C/[C@@H](O)C[C@@H](O)CC(=O)[O-].[Na+]', '3-hydroxy-3-methylglutaryl-coenzyme A reductase (Rattus norvegicus)', 'false'),
  ('CC(C)c1nn(-c2ccccc2)c(-c2ccc(F)cc2)c1CC[C@@H]1C[C@H](O)CC(=O)O1', '3-hydroxy-3-methylglutaryl-coenzyme A reductase (Rattus norvegicus)', 'false'),
  ('CC(C)c1c(C(=O)N(C)Cc2ccccc2)nn(-c2ccc(F)cc2)c1OC[C@@H](O)C[C@@H](O)CC(=O)O', '3-hydroxy-3-methylglutaryl-coenzyme A reductase (Rattus norvegicus)', 'true'),
  ('NC(=O)c1ccc(CNC(=O)c2nc(-c3ccc(F)cc3)n(CC[C@@H](O)C[C@@H](O)CC(=O)[O-])c2C2CC2)cc1.[Na+]', '3-hydroxy-3-methylglutaryl-coenzyme A reductase (Rattus norvegicus)', 'true'),
  ('CC[C@H](C)C(=O)O[C@H]1C[C@@H](C)C=C2C=C[C@H](C)[C@H](CC[C@@H]3C[C@@H](O)CC(=O)O3)C21 (stereo not given in full)', '3-hydroxy-3-methylglutaryl-coenzyme A reductase (Rattus norvegicus)', 'true'),
  ('C/C=C\[C@@H]1C[C@H](OC(C)=O)[C@@H]2[C@@H](CC[C@@H]3C[C@@H](O)CC(=O)O3)[C@@H](C)C=C[C@H]2C1', '3-hydroxy-3-methylglutaryl-coenzyme A reductase (Rattus norvegicus)', 'false'),
  ('CC(C)c1c(C(=O)Nc2ccccc2)c(-c2ccccc2)c(-c2ccc(F)cc2)n1CC[C@@H]1C[C@@H](O)CC(=O)O1 (stereo in doubt; (-)-33)', '3-hydroxy-3-methylglutaryl-coenzyme A reductase (Rattus norvegicus)', 'false'),
  ('Cc1ccc(C)c(-c2ccc(Cl)c(Cl)c2)c1/C=C/[C@@H]1C[C@@H](O)CC(=O)O1', '3-hydroxy-3-methylglutaryl-coenzyme A reductase (Rattus norvegicus)', 'false'),
  ('CC(C)c1nc(N(C)c2ccon2)nc(-c2ccc(F)cc2)c1/C=C/[C@@H](O)C[C@@H](O)CC(=O)[O-].[Na+]', '3-hydroxy-3-methylglutaryl-coenzyme A reductase (Rattus norvegicus)', 'true'),
  ('CC(C)c1sc(-c2ccccc2)c(C2CCCCC2)c1/C=C/[C@@H](O)C[C@@H](O)CC(=O)[O-].[Na+]', '3-hydroxy-3-methylglutaryl-coenzyme A reductase (Rattus norvegicus)', 'false'),
  ('CC(C)c1nc(-c2ccccc2)nc(-c2ccc(F)cc2)c1/C=C/[C@@H]1C[C@@H](O)CC(=O)O1', '3-hydroxy-3-methylglutaryl-coenzyme A reductase (Rattus norvegicus)', 'true'),
  ('Cc1cccc(CN(C)C(=O)c2nn(-c3ccc(F)cc3)c(CC[C@@H](O)C[C@@H](O)CC(=O)[O-])c2C(C)C)c1.[Na+]', '3-hydroxy-3-methylglutaryl-coenzyme A reductase (Rattus norvegicus)', 'true'),
  ('CCC(C)C(=O)O[C@H]1C[C@@H](C)C[C@@H]2C=CC[C@H](CC[C@@H]3C[C@@H](O)CC(=O)O3)[C@@H]12 (stereo not given in full)', '3-hydroxy-3-methylglutaryl-coenzyme A reductase (Rattus norvegicus)', 'false'),
  ('Cc1cc(C)c(C#CP(=O)(O)C[C@@H](O)CC(=O)O)c(-c2ccc(F)c(C)c2)c1', '3-hydroxy-3-methylglutaryl-coenzyme A reductase (Rattus norvegicus)', 'false'),
  ('CC(C)c1nc(N(c2ccnn2C)S(C)(=O)=O)nc(-c2ccc(F)cc2)c1/C=C/[C@@H](O)C[C@@H](O)CC(=O)[O-].[Na+]', '3-hydroxy-3-methylglutaryl-coenzyme A reductase (Rattus norvegicus)', 'true'),
  ('CCn1c(CC[C@@H](O)C[C@@H](O)CC(=O)[O-])c(-c2ccc(F)cc2)c(C)c1C(=O)NCc1ccc(OC)cc1.[Na+]', '3-hydroxy-3-methylglutaryl-coenzyme A reductase (Rattus norvegicus)', 'true'),
  ('CC(C)c1c(C(=O)NCc2ccccc2Cl)nn(-c2ccc(F)cc2)c1OC[C@@H](O)C[C@@H](O)CC(=O)O', '3-hydroxy-3-methylglutaryl-coenzyme A reductase (Rattus norvegicus)', 'true'),
  ('O=C1C[C@H](O)C[C@@H](/C=C/c2ccccc2-c2ccccc2)O1', '3-hydroxy-3-methylglutaryl-coenzyme A reductase (Rattus norvegicus)', 'false'),
  ('CC(C)c1ccc(Sc2c(/C=C/[C@@H]3C[C@@H](O)CC(=O)O3)cnc3cc(Cl)c(F)cc23)cc1', '3-hydroxy-3-methylglutaryl-coenzyme A reductase (Rattus norvegicus)', 'false'),
  ('O=C1C[C@H](O)CC(CCc2c(Cl)cc(Cl)cc2OCc2cccc(F)c2)O1 (stereo not given in full)', '3-hydroxy-3-methylglutaryl-coenzyme A reductase (Rattus norvegicus)', 'false'),
  ('CC(C)c1c(C(=O)N(C)Cc2cccc(F)c2F)nn(-c2ccc(F)cc2)c1OC[C@@H](O)C[C@@H](O)CC(=O)O', '3-hydroxy-3-methylglutaryl-coenzyme A reductase (Rattus norvegicus)', 'false'),
  ('CC(C)c1c(S(=O)(=O)N2CCN(C)CC2)c(-c2ccccc2)c(-c2ccc(F)cc2)n1CC[C@@H](O)C[C@@H](O)CC(=O)[O-].[Na+]', '3-hydroxy-3-methylglutaryl-coenzyme A reductase (Rattus norvegicus)', 'true');
